# targetOrSystem: T1, Claudin 18.2 (CLDN18.2), expressed on CHOS-CLDN 18.2 / HEK293-CLDN 18.2 / HCC827-CLDN 18.2 cells (human, UniProt P56856-2 1-261)
# T1 construct: whole, on cells; The species is not repeated for the CHOS-CLDN 18.2 cells; also called claudin-18A2
# measurementProtocol: FACS, CHOS-CLDN18.2 cells, 0.020 µg/ml
quantityMeasured: FACS reading

FACS reading lookup needed for QP199200 (antibody, human IgG1, V domains shown, Chimeric; also called 43C11; mouse-derived chimeric antibody QP199200) VH: DVQLVESGGGLVQPGGSRKLSCAASGFTFSSFGMHWVRQAPEKGLEWVAYISSGSNSIYYVDTVKGRFTISRDNPKNTLFLQMTSLKSEDTAMYYCARNAYYGNSFDYWGQGTTLTVSS VL: DIVMTQSPSSLTVTAGEKVTMSCKSSQSLLNSGNQKNYLTWYQQKPGQPPKLLIYWASTRESGVPDRFTGSGSGTVFTLTISSVQAEDLAVYFCQNNYYYPLTFGAGTKLELK , thanks.
7520

Reference source for all entries: patent US20230183352A1
